experiment: anti-His antibody binders, primary screen, artefact control for SMM control protein annotation, biochemical, small-molecule microarray, 635 nm fluorescence (AID 1128); details: anti-His Alexa647 antibody binding, higher = more signal;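 note: score merges feature fluorescence with signal-to-noise for each printed compound spot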
EXPERIMENTAL ENDPOINT: composite z-score
Give only the figure.

Solved entries:
COMPOUND | RESULT VALUE
CCOC(=O)C1=C[C@@H](CC)N(S(=O)(=O)c2ccc(C)cc2)[C@H]1c1ccccc1 | 0.862
COC(=O)c1ccc(C(O)C2C=CC3C(=O)N(C)C(=O)C3N2NC(=O)OC(C)(C)C)o1 (stereo not drawn) | 0.882
C=CC[C@@H](OC(=O)Nc1ccc(OC)cc1)c1ccc(O)c2ccccc12 | 0.235
C=C(COC)C(=O)CC[C@H](OC(C)=O)c1cccc(OCCO)c1 | -0.704

Data request: Please supply the value of reported composite z-score for the item `CCCNC(=O)[C@@H]1c2ccccc2C(=O)N(Cc2ccccc2)[C@H]1c1ccc(CO)cc1`
Data returned: 1.88

Data request: Quickly give me recorded composite z-score for CCN(CC)c1ccc(N2CC=CC34O[C@@H]5/C=C\CCCOC(=O)C5[C@H]3C(=O)N(C(CO)C(C)C)[C@@H]4C2=O)cc1 (stereo partly drawn)
Data returned: 1.02

Data request: Assign composite z-score to the following record: CC(C)OC(=O)CC(=O)CC(O)c1ccc(C#N)cc1 (stereo not drawn)
Data returned: 0.548

Data request: Look up and report measured composite z-score for this entry: CCOC(=O)C1=CCC(c2ccc(C#N)cc2)N(S(=O)(=O)c2ccc(C)cc2)C1 (stereo not drawn)
Data returned: 1.64

* * *

assay: P. aeruginosa biofilm formation inhibitors, primary screen, strain PAO1, LB-PBS medium, absorbance 600 nm (AID 1176); note: test concentration not given here; conditions: P. aeruginosa PAO1 growth/biofilm, A600, 12 h; higher = more signal
EXPERIMENTAL ENDPOINT: z-score
Lab note: record the figure alone, no unit after it.

Data request: Tell me its z-score given CC(C)C(O)C1C=CC2C(=O)N(c3ccccc3)C(=O)C2N1Nc1ccc(C#N)cc1 (centres undefined) as the entry.
Data returned: 1.11

Data request: Give the reported z-score for this compound. `C=CC(=C)C1=CCO[C@@H]1[C@H]1CCCN1S(=O)(=O)c1ccccc1[N+](=O)[O-]`
Data returned: -0.578

Data request: Name the recorded z-score of the item `C=C(COC)C(=O)CC[C@@H](OC(=O)c1cccnc1)c1ccc(CO)o1` in your answer.
Data returned: 0.649

Data request: Given the compound `[N-]=[N+]=NCc1ccccc1[C@@H]1OC(c2ccc(OCCCO)cc2)=N[C@]1(Cc1ccccc1N=[N+]=[N-])C(=O)NCc1ccccc1` , write its reported z-score.
Data returned: 0.603

* * *

test system: Lefty1; experiment: Lefty1 binders on small-molecule microarrays, primary screen, biochemical, small-molecule microarray, 635/667 nm fluorescence (AID 1139); conditions: small-molecule microarray binding, fluorescence 635/667; higher = more signal
Item-by-item account of composite z-score
Answer with a bare number; do not write a unit.

Some entries whose results are on file:
MOLECULE | composite z-score
CCC(CC)C(O)C1C=CC2C(=O)N(c3ccccc3)C(=O)C2N1Nc1ccc(C#N)cc1 (stereo not drawn) | 0.0695
COc1ccc([Si](C)(C)[C@@H]2[C@@H](CCn3cc([C@H](O)c4ccccc4)nn3)O[C@]3(C(=O)N(Cc4ccc(N5C(=O)c6cccc7cccc5c67)cc4)c4ccccc43)[C@H]2C)cc1 | -0.236
COc1ccc(NN2C(C(O)c3ccc(OC)c(OCc4ccccc4)c3)C=CC3C(=O)N(C4CCCCC4)C(=O)C32)cc1 (stereo not drawn) | 0.461

Data request: Supply composite z-score value. Item: `[N-]=[N+]=NCc1ccccc1C[C@]1(C(=O)O)N=C(c2ccc(OCCCO)cc2)O[C@H]1c1ccccc1CN=[N+]=[N-]`
Data returned: -0.8

Data request: For the molecule `COCCOC(=O)N1C(=O)[C@@]2(c3ccccc31)[C@H](C(=O)NC[C@H](O)c1ccccc1)[C@H]1C(=O)O[C@H](c3ccccc3)[C@H](c3ccccc3)N1[C@@H]2c1ccc(OCCO)cc1` , report composite z-score.
Data returned: 1.58

Data request: // Input: CC(C)OC(=O)CC(=O)CC(O)c1ccc(C#N)cc1 (stereo not drawn) . Output its composite z-score only.
Data returned: -0.783

Data request: Kindly indicate its recorded composite z-score. Item: `CC(=CC1CCCCC1)[C@@H](NC(=O)c1ccc(C(F)(F)F)cc1)c1ccc(-c2ccccc2)cc1`
Data returned: -0.795

Data request: Answer with the recorded composite z-score for the molecule listed here: `Cc1ccc(S[C@]2(C(=O)NC3CC3)CC(=O)N(C3CCCCC3)[C@@H]2c2ccc(CO)cc2I)cc1`
Data returned: 0.87

Data request: Identify measured composite z-score corresponding to `C=CCNC(=O)[C@@H]1[C@H]2C(=O)O[C@H](c3ccccc3)[C@H](c3ccccc3)N2[C@H](c2ccc(OCCO)cc2)[C@@]12C(=O)Nc1ccccc12`
Data returned: 1.03

* * *

Reported z-score values follow for various molecules
test: PSAC antagonists in infected red cells, primary screen, cell-based, P. falciparum Indochina, OD700, 1 h (AID 1154); conditions: P. falciparum Indochina infected RBC osmotic lysis, higher = more signal, called active from +8 up or from −8 down
Active and inactive are the calls of the source.

Below are worked cases with known answers.
MOLECULE | z-score
O=C1C=CC(=O)[C@@H]2CC(COc3ccccc3)=C3[C@@H](CCc4ccccc4)OB(O)C[C@@H]3[C@H]12 | 3.41 (inactive)
COCCOC(=O)N1C(=O)[C@@]2(c3cc(C#CCCO)ccc31)[C@H](c1ccc(O)cc1)N1[C@H](c3ccccc3)[C@H](c3ccccc3)OC(=O)[C@H]1[C@@H]2C(N)=O | 6.55 (inactive)
[N-]=[N+]=Nc1ccccc1[C@@H]1OC(c2ccc(OCCCO)cc2)=N[C@]1(CCS(=O)(=O)c1ccccc1)C(=O)N1CCOCC1 | 30.4 (active)
CC(C)OC(=O)CC(=O)CC(O)c1ccc(C#N)cc1 (stereo not drawn) | 1.96 (inactive)
C[C@]1(C(=O)NCc2ccccc2)c2ccccc2C(=O)N(Cc2ccc(OC(F)(F)F)cc2)[C@H]1c1ccc(CO)cc1 | 3.54 (inactive)

We next turn to a different molecule, shown below.
Data request: Answer with the recorded z-score for the molecule listed here: `O=C(CS)NCCCCCCNC(=O)[C@H]1C[C@H]2C(=O)N3CCC[C@H]3C(=O)N2[C@H]1c1cccc(OCCO)c1`
Data returned: 5.08 (inactive)

* * *

system: glycogen synthase kinase-3 (GSK3A per assay name; protocol says GSK3B); assay: GSK3 binders on small-molecule microarrays, primary screen, biochemical, small-molecule microarray, 635 nm fluorescence, GSK3A (AID 1103); settings: small-molecule microarray binding, fluorescence 635 nm; higher = more signal; note: the record names both GSK3A and GSK3B
Below, each entry is listed alongside its reported composite z-score.
I'd appreciate a reply containing only the number, no unit.

Examples with their reported composite z-score follow.
COMPOUND | composite z-score
CCN(CC)c1ccc(N2CC=CC34O[C@@H]5C=CCCOC(=O)C5[C@H]3C(=O)N(CCCCCO)[C@@H]4C2=O)cc1 (stereo not given in full) | -0.139
[N-]=[N+]=NCc1ccccc1C[C@]1(C(=O)O)N=C(c2ccc(OCCCO)cc2)O[C@H]1c1ccccc1 | 0.102
COCCOC(=O)N1C(=O)[C@@]2(c3cc(C#CC4=CCCCC4)ccc31)[C@H](C(=O)NC[C@H](O)c1ccccc1)[C@H]1C(=O)O[C@H](c3ccccc3)[C@H](c3ccccc3)N1[C@@H]2c1ccc(O)cc1 | 1.3

Data request: Return composite z-score for the following compound: `Cc1ccc(S[C@]2(C(=O)NC3CC3)CC(=O)N(Cc3ccccc3)[C@@H]2c2ccc(CO)cc2)cc1`
Data returned: -0.414

Data request: Answer with the recorded composite z-score of `O=c1cccc(C=Cc2ccccc2)o1` only.
Data returned: 0.0144

Data request: Please supply the value of reported composite z-score for the item `COCCOC(=O)N1C(=O)[C@@]2(c3cc(C#CCCO)ccc31)[C@H](c1ccccc1OCCO)N1[C@H](c3ccccc3)[C@H](c3ccccc3)OC(=O)[C@H]1[C@@H]2C(=O)N1CCN(c2ncccn2)CC1`
Data returned: 1.22

Data request: Indicate the recorded composite z-score value for this compound: `COc1ccc(CCNC(=O)[C@@]2(Sc3ccc(C)cc3)CC(=O)N(Cc3ccccc3Cl)[C@@H]2c2ccc(CO)cc2I)cc1`
Data returned: 0.351

Data request: Provide one value: measured composite z-score of `O=C1C=CC(=O)[C@@H]2CC(COc3ccccc3)=C3[C@@H](CCc4ccccc4)OB(O)C[C@@H]3[C@H]12`
Data returned: 0.34

Data request: Provide composite z-score value for the following compound: O=C1OCCC=C[C@H]2OC34C=CCN(Cc5ccccc5)C(=O)[C@H]3N(CCCCCCO)C(=O)[C@@H]4C12 (stereo not given in full)
Data returned: -0.578

Data request: Hello, please tell me recorded composite z-score for this one: CS(=O)(=O)CCOC(=O)C1=CC(CCCO)=CC(c2cccs2)N(Cc2cc3c(cc2Br)OCO3)C=C1C(=O)OCCS(C)(=O)=O (stereo not given)
Data returned: 1.25
